- measurement_description: Plasma concentration of Compound 54 after intratracheal administration (HPLC)
- Assay type: in vivo, Sprague-Dawley rats
- test_parameters: Sprague-Dawley, rat, other: intratracheal (into the trachea via intubation), 2 mg per rat, Rat 1, 120 min post-intubation, 0.2 mL of 10 mg/mL solution in saline, read-out: Plasma Concentration Rat 1
property_label: concentration at 120 min (ng/mL)
Write the number in ng/mL without appending the unit.

// sample `CNC(=O)[C@H]1O[C@@H](n2cnc3c(NC)nc(C#N)nc32)[C@@H]2OP(=O)(O)O[C@@H]21` , its concentration at 120 min was 9.7

---

- measurement_description: Plasma concentration of Compound 54 after intratracheal administration (HPLC)
- Type: in vivo, Sprague-Dawley rats
- test_parameters: Sprague-Dawley, rat, other: intratracheal (into the trachea via intubation), 2 mg per rat, second rat column (head printed Rat 1), 30 min post-intubation, 0.2 mL of 10 mg/mL solution in saline, read-out: Plasma Concentration Rat 1
property_label: concentration at 30 min (ng/mL)
Write the number in ng/mL without appending the unit.

// sample `CNC(=O)[C@H]1O[C@@H](n2cnc3c(NC)nc(C#N)nc32)[C@@H]2OP(=O)(O)O[C@@H]21` , its concentration at 30 min was 202

---

- measurement_description: Plasma concentration of Compound 54 after intratracheal administration (HPLC)
- Format: in vivo, Sprague-Dawley rats
- test_parameters: Sprague-Dawley, rat, other: intratracheal (into the trachea via intubation), 2 mg per rat, Rat 1, 10 min post-intubation, 0.2 mL of 10 mg/mL solution in saline, read-out: Plasma Concentration Rat 1
property_label: concentration at 10 min (ng/mL)
Write the number in ng/mL without appending the unit.

// sample CNC(=O)[C@H]1O[C@@H](n2cnc3c(NC)nc(C#N)nc32)[C@@H]2OP(=O)(O)O[C@@H]21 [Compound 54] , its concentration at 10 min was 830

---

- measurement_description: Plasma concentration of Compound 54 after intratracheal administration (HPLC)
- Assay type: in vivo, Sprague-Dawley rats
- test_parameters: Sprague-Dawley, rat, other: intratracheal (into the trachea via intubation), 2 mg per rat, mean of two rats, 30 min post-intubation, 0.2 mL of 10 mg/mL solution in saline, read-out: Mean Plasma Concentration
property_label: concentration at 30 min (ng/mL)
Write the number in ng/mL without appending the unit.

// sample `CNC(=O)[C@H]1O[C@@H](n2cnc3c(NC)nc(C#N)nc32)[C@@H]2OP(=O)(O)O[C@@H]21` , its concentration at 30 min was 217

---

- measurement_description: Plasma concentration of Compound 54 after intratracheal administration (HPLC)
- Assay type: in vivo, Sprague-Dawley rats
- test_parameters: Sprague-Dawley, rat, other: intratracheal (into the trachea via intubation), 2 mg per rat, mean of two rats, 60 min post-intubation, 0.2 mL of 10 mg/mL solution in saline, read-out: Mean Plasma Concentration
property_label: concentration at 60 min (ng/mL)
Write the number in ng/mL without appending the unit.

// sample CNC(=O)[C@H]1O[C@@H](n2cnc3c(NC)nc(C#N)nc32)[C@@H]2OP(=O)(O)O[C@@H]21 [Compound 54] , its concentration at 60 min was 47.6
